B1: CPEB3 Ribozyme (parent)
chain: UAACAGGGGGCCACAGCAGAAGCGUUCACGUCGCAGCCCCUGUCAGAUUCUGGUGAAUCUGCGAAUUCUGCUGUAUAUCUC

variants of: B1; experiment: self-cleavage, relative activity (ratio to wild type); higher = more cleavage; in vitro, sequencing
measure: self-cleavage
// keep it numeric: no unit symbol after the value

Requested field: self-cleavage. Item: G9A U74C
0.6

I am curious: what self-cleavage value has been reported for G8A A45U ?
0.06

Name the recorded self-cleavage for G30A U41A .
0.14

// self-cleavage lookup, key: C34U U74C
0.84

For the variant shown here, A28U C71U , give the reported self-cleavage.
0.39

Look up self-cleavage: G70C U72C
0.31

Quick one: self-cleavage of U41C G42C ?
0.23

What does the data say about its self-cleavage? Entry: A20U G53A
0.28

Can you share its self-cleavage? I mean this variant: A15U C39A
0.24

Param item = C27U A65G ; retrieve measured self-cleavage.
0.24

Look up self-cleavage: G10A C40U
0.15

Which self-cleavage reading was recorded for the variant G8A U51A ?
0.24

What does the data say about its self-cleavage? Entry: A20U U74G
0.55

Recorded self-cleavage for A18U U67A , please?
0.21

Consider the variant A15G A18U and give its measured self-cleavage.
0.26

For C12U G70A , what is its reported self-cleavage?
1.06

// lookup self-cleavage for A21G G61A
0.2

Can you look up the measured self-cleavage of A20G A28U for me?
0.58

Reported self-cleavage for C23U U72G : what is it?
0.1

Any idea what self-cleavage was measured for C44U A56G ?
0.18

Recorded self-cleavage for G46A A56G , please?
0.25

Which self-cleavage is reported for this variant? A18U G52A
0.39

Source of measurements: the RNAGym collection of RNA variant scans (doi:10.1093/nar/gkz1192)
